target: CYP3A4 (Homo sapiens, UniProt P08684); construct: cryopreserved human microsomes (pooled donors); from tissue; experiment: In vitro assessment of CYP3A4 inhibition potential using cryopreserved human microsomes; type: in vitro ADME; details: human, cryopreserved human microsomes (pooled donors), probe midazolam 2.5 μM (1-hydroxymidazolam formation), 20 μM compound, human microsomes 0.25 mg/ml, Table C
Sequence (P08684 whole entry): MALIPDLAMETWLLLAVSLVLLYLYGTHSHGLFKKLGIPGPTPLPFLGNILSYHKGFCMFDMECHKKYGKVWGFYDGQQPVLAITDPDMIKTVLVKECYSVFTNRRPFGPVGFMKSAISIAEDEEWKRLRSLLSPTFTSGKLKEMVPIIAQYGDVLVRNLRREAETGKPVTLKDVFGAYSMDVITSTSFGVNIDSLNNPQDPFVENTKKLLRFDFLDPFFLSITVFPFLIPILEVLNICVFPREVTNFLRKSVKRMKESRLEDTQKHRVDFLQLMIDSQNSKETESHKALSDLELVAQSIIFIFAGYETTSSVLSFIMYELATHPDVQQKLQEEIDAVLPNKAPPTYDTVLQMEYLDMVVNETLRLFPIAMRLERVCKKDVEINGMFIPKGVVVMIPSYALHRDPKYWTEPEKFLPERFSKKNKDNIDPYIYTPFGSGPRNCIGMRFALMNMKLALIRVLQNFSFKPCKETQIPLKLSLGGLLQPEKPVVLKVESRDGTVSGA
Reported inhibition at 15 min, 20 μM values for a set of compounds

Guide cases for inhibition at 15 min, 20 μM, answers given:
{"COMPOUND": "CC(O)c1ncc(Cl)c(CC(=O)N2CC[C@H]3[C@H]([C@H](O)C(F)(F)F)CCC[C@@H]3[C@@H]2C)c1Cl (single isomer, unassigned)", "STUDY TARGET": "CYP3A4 (Homo sapiens, UniProt P08684)", "inhibition at 15 min, 20 μM": "20 to 40%"}
{"COMPOUND": "COc1ccc(C#N)c(CC(=O)N2CC[C@H]3[C@H]([C@@H](O)C(F)(F)F)CCC[C@@H]3[C@@H]2C)c1Cl", "STUDY TARGET": "CYP3A4 (Homo sapiens, UniProt P08684)", "inhibition at 15 min, 20 μM": "40 to 60%"}
{"COMPOUND": "C[C@H]1[C@H]2CCC[C@@H]([C@H](O)C(F)(F)F)[C@@H]2CCN1C(=O)Cc1c(Cl)ccc2nnc(Cl)n12", "STUDY TARGET": "CYP3A4 (Homo sapiens, UniProt P08684)", "inhibition at 15 min, 20 μM": "70 to 80%"}

# query: inhibition at 15 min, 20 μM of entry `C[C@H]1[C@H]2CCC[C@@H]([C@H](O)C(F)(F)F)[C@@H]2CCN1C(=O)Cc1c(Cl)cc(F)c2[nH]nc(Cl)c12`
40 to 60%

# query: inhibition at 15 min, 20 μM of entry `C[C@H]1[C@H]2CCC[C@@H]([C@H](O)C(F)(F)F)[C@@H]2CCN1C(=O)Cc1c(Cl)cnc(C(C)(C)O)c1Cl`
20 to 40%

# query: inhibition at 15 min, 20 μM of entry C[C@H]1[C@H]2CCC[C@@H]([C@H](O)C(F)(F)F)[C@@H]2CCN1C(=O)Cc1c(Cl)cnc(C(O)C(F)F)c1Cl (single isomer, unassigned)
≤ 20%

# query: inhibition at 15 min, 20 μM of entry `C[C@H]1[C@H]2CCC[C@@H]([C@H](O)C(F)(F)F)[C@@H]2CCN1C(=O)Cc1c(Cl)cnc(CO)c1Cl`
20 to 40%

# query: inhibition at 15 min, 20 μM of entry `COc1ccc(Cl)c(CC(=O)N2CC[C@H]3[C@H]([C@H](O)C(F)(F)F)CCC[C@@H]3[C@@H]2C)c1C#N`
20 to 40%

###

Reported inhibition at 15 min, 20 μM values for a set of compounds
target: CYP3A4 (Homo sapiens, UniProt P08684); construct: cryopreserved human microsomes (pooled donors); from tissue; test: In vitro assessment of CYP3A4 inhibition potential using cryopreserved human microsomes; type: in vitro ADME; details: human, cryopreserved human microsomes (pooled donors), probe midazolam 2.5 μM (1-hydroxymidazolam formation), 20 μM compound, human microsomes 0.25 mg/ml, Table C

Guide cases for inhibition at 15 min, 20 μM, answers given:
{"COMPOUND": "COc1ccc(C#N)c(CC(=O)N2CC[C@H]3[C@H]([C@H](O)C(F)(F)F)CCC[C@@H]3[C@@H]2C)c1Cl [Example 1-A]", "STUDY TARGET": "CYP3A4 (Homo sapiens, UniProt P08684)", "ENDPOINT LABEL": "inhibition at 15 min, 20 μM", "OBSERVED": "60 to 70%"}
{"COMPOUND": "COc1ncc(Cl)c(CC(=O)N2CC[C@H]3[C@H]([C@H](O)C(F)(F)F)CCC[C@@H]3[C@@H]2C)c1Cl [Example 3]", "STUDY TARGET": "CYP3A4 (Homo sapiens, UniProt P08684)", "ENDPOINT LABEL": "inhibition at 15 min, 20 μM", "OBSERVED": "60 to 70%"}
{"COMPOUND": "COc1ccc(C#N)c(CC(=O)N2CC[C@@H]3[C@H](CCC[C@H]3C(C)(O)C(F)(F)F)[C@@H]2C)c1Cl (single isomer, unassigned) [Example 7-A]", "STUDY TARGET": "CYP3A4 (Homo sapiens, UniProt P08684)", "ENDPOINT LABEL": "inhibition at 15 min, 20 μM", "OBSERVED": "20 to 40%"}
{"COMPOUND": "C[C@H]1[C@H]2CCCC([C@@H](O)C(F)(F)F)[C@@H]2CCN1C(=O)Cc1c(Cl)ccc2c1c(Cl)nn2C (single isomer, unassigned) [Example 8-A]", "STUDY TARGET": "CYP3A4 (Homo sapiens, UniProt P08684)", "ENDPOINT LABEL": "inhibition at 15 min, 20 μM", "OBSERVED": "20 to 40%"}

# query: inhibition at 15 min, 20 μM of entry C[C@H]1[C@H]2CCC[C@@H]([C@H](O)C(F)(F)F)[C@@H]2CCN1C(=O)Nc1c(Cl)cccc1Cl [Example 10]
20 to 40%

# query: inhibition at 15 min, 20 μM of entry COc1ccc(C#N)c(CC(=O)N2CC[C@@H]3[C@H](CCC[C@H]3C(O)C(F)F)[C@@H]2C)c1Cl (single isomer, unassigned) [Example 6-A]
20 to 40%

Where do the numbers come from? From patent US20240043400A1.
